System: Tyk2-pSTAT4 (IL-12 induced pSTAT4)
Assay Comment: IL-12 induced pSTAT4 in human PBMC
Type: cell-based
Measurement Setup: Homo sapiens, PBMC, 0.5 h, 1.7 ng/mL IL-12, 30 minutes
pEC50: −log10 of the molar value.
Endpoint: pEC50

Study these solved cases before continuing.
# Molecule, Value Observed
records = [
    ("[2H]C1([2H])NC(=O)c2c(-n3ccc(N4C([2H])([2H])C[C@@](O)(C([2H])([2H])[2H])C4([2H])[2H])n3)cc(-c3c(F)cccc3C#N)nc21 [I-206]", "7.00 to 7.52"),
    ("N#Cc1cccc(F)c1-c1cc(-n2ccc(N3CCC[C@H](CO)C3)n2)c2c(n1)CNC2=O [I-98]", "7.00 to 7.52"),
    ("N#Cc1cccc(F)c1-c1cc(-n2ccc(N3CCCC(C(=O)O)C3)n2)c2c(n1)CNC2=O (centres unmarked) [I-91]", "5.70 to 7.00"),
    ("N#Cc1cccc(F)c1-c1cc(-n2ccc(N3CCC[C@@H](CO)C3)n2)c2c(n1)CNC2=O [I-97]", "7.00 to 7.52"),
]

Prompt: Provide the documented pEC50 with Tyk2-pSTAT4 (IL-12 induced pSTAT4) as the system for CS(=O)(=O)NC1CCN(c2ccn(-c3cc(-c4c(F)cccc4C#N)nc4c3C(=O)NC4)n2)C1 (centres unmarked) [I-120]
Response: 5.70 to 7.00
